B1: EEHEE_rd4_0469 (parent)
chain: ITIHVNGVTYHFDNPEEAEKFAQKMAKTYQLKMEIHNGEFHME

# Variants of: B1
# test: folding stability dG (cDNA display proteolysis); higher = more stable
# condition.description: PBS, room temperature
Measured folding stability dG, listed per entry.

# residue.codes, folding stability dG [kJ/mol]
data = [
    ("RTIHVNGVTYHFDNPEEAEKFAQKMAKTYQLKMEIHNGEFHME [I1R]", 4.24),
    ("ITIHVNGVTYHLDNPEEAEKFAQKMAKTYQLKMEIHNGEFHME [F12L]", 1.25),
    ("ITIHVTGVTYHFDNPEEAEKFAQKMAKTYQLKMEIHNGEFHME [N6T]", 4.19),
    ("ITIHVNGVTYHFDNPEEAEKFAQKPAKTYQLKMEIHNGEFHME [M25P]", -4.1),
    ("ITIHVNGVIYHFDNPEEAEKFAQKMAKTYQLKMEIHNGEFHME [T9I]", 4.96),
    ("ITIHVNGVTYHFDNPEEAQKFAQKMAKTYQLKMEIHNGEFHME [E19Q]", 5.28),
    ("ITIHVNGVTYHFDNPEEAEKFAQKMAKTYQLKMEIDNGEFHME [H36D]", 2.97),
    ("ITIHVNGVTYHFDNPEEAEKFAQKMAKTYQLKMEIHNGESHME [F40S]", 2.95),
    ("ITKHVNGVTYHFDNPEEAEKFAQKMAKTYQLKMEIHNGEFHME [I3K]", 0.795),
    ("ITCHVNGVTYHFDNPEEAEKFAQKMAKTYQLKMEIHNGEFHME [I3C]", 6.5),
]

Where do these numbers come from? They come from the MegaScale stability set (Tsuboyama et al. 2023).
